Target: HDGF S103A (human, UniProt P51858 1-240, S103A)
Sequence (P51858 whole entry S103A): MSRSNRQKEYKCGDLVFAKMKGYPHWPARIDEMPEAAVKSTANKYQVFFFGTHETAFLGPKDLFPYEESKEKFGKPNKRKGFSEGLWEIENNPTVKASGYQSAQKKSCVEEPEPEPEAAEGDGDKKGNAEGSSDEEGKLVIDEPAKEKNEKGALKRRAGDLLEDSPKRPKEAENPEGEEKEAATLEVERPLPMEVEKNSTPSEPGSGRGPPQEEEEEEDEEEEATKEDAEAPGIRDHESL
Test: PIFQ (Cy3 fluorescence quenching); 1 nM DNA; Hill n=0.50; HDGF assays: 46 mM NaCl, 0.9 mM KCl, 3.3 mM Na2HPO4, 0.66 mM KH2PO4, pH 7.4; at least 1 h on ice; 1-10 nM Cy3 DNA, 10 pM-100 nM protein; RecA dsDNA control at pH 7.5
Settings: protein: recombinant; label: Cy3
measurement kind: Kd (nM)
Enter your answer as a number in nM; do not include the unit.

Request: Determine from records and report Kd for GC-rich dsDNA (dsDNA) DNA 1: TCCTCGCTGCCGTCGGCCA DNA 2: TGGCCGACGGCAGCGAGGA
Result: 0.34

All values here come from paper PMC11331505.
